- measured_on: CAAX prenyl protease 2 (Homo sapiens)
- Sequence (Q9Y256 whole entry): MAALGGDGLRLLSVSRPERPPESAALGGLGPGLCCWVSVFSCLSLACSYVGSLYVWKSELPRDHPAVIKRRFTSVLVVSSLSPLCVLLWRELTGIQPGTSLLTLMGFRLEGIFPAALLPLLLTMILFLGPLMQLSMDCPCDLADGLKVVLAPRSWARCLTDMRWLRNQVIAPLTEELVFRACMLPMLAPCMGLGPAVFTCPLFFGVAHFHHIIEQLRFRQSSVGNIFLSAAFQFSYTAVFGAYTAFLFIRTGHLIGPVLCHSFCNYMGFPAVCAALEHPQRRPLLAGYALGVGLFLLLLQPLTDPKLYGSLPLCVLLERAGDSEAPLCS
- experiment_notes: inhibition of Ras-converting CAAX protease Rce1 – biochemical, yeast membranes, quenched-peptide fluorescence, cherry-pick, dose response (AID 588849)
The source made the active and inactive calls.
measure_name: AC50

Which value of AC50 has been reported for CCCCNc1c(-c2ccc(SC(C)CC)c(OC)c2)nc2ccc(C)cn12 (centres undefined) in the records?
32.5 µM (active)

Give one value of AC50 per listed molecule.
1. c1coc(-c2ccnc3ncnn23)c1
2. COc1cc2nc3c(O)n(CCN4CCOCC4)cnc-3c2cc1OC

1. 3.88 µM (active)
2. 9.95 µM (active)

Which AC50 is reported for this molecule? COc1ccccc1-c1nnc2sc(-c3ccc(N(C)C)cc3)nn12
1.02 µM (active)

---

Provide the reported IC50 of each item.
- measured_on: UniProt:Q9GZV3
- Sequence (Q9GZV3 whole entry): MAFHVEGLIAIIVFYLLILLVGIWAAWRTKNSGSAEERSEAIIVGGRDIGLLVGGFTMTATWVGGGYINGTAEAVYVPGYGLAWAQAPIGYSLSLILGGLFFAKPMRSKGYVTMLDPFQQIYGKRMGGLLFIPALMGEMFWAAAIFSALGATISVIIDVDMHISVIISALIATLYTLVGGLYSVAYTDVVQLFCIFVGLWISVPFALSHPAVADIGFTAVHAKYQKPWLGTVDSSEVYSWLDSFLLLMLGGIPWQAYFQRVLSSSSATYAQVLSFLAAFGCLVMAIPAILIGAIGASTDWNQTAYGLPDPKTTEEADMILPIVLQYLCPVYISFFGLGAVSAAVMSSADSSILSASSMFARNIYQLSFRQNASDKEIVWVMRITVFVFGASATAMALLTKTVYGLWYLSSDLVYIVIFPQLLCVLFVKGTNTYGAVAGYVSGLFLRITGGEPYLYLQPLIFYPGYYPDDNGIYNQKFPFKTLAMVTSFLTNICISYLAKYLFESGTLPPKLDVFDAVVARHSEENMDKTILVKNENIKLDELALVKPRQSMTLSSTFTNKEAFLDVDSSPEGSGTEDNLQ
- experiment_notes: human choline transporter blockers, potency – cell-based, 5-point CRC, membrane potential dye, dose response (AID 504840)
- Assay type: functional
Activity calls are given as the source filed them.

Data request, read-out IC50, for O=[N+]([O-])c1ccc(O)c(C2=NNC(c3ccccc3F)C2)c1 (centres undefined)
15.1 µM (active)

Next compound up: Oc1c(Br)cc(Br)cc1/C=N/c1nc2c(s1)CCCC2
13.2 µM (active)

// same read-out, input: Cc1nn(-c2ccccc2)nc1C(=O)Nc1nnc(C(F)(F)F)s1
17.4 µM (active)

More entries:
Any idea what IC50 was measured for O=C(O/N=C(/c1ccccc1)c1ccncc1)c1ccccc1[N+](=O)[O-] ?
13.2 µM (active)

---

Sequence of the target: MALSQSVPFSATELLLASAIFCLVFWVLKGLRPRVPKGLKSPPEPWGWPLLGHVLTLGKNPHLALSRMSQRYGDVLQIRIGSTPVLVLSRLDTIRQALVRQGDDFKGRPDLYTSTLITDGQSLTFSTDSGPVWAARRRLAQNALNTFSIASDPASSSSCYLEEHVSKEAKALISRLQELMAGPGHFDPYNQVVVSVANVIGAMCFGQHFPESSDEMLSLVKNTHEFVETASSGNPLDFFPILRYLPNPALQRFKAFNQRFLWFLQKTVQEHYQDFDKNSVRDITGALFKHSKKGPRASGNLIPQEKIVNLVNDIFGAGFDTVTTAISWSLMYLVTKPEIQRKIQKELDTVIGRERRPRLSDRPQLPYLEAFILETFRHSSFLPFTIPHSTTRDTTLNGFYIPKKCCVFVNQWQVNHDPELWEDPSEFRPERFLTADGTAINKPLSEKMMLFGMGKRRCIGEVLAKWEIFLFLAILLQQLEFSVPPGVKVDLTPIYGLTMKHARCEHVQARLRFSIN
measure_name: AC50

Using the record for O=C(c1csnn1)N1CCC2(CC1)CCN(c1ccccn1)CC2 , report its AC50.
25.1 µM (inconclusive)

What do we get for CC(OC(=O)Cn1c(C(F)(F)F)nc2ccccc21)C(N)=O (configuration not stated) ?
25.1 µM (inconclusive)

Same for CSc1ccc2c(c1)N(CCCN(C)C)c1ccccc1S2
1.26 µM (inconclusive)

# iterate: O=C(O)C[C@@H](C(=O)O)c1ccccc1[N+](=O)[O-]
0.794 µM (inconclusive)

Query O=c1c(-c2ccc(Cl)cc2)nc2cnc(N3CCOCC3)nc2n1-c1ccccc1 next
2 µM (inconclusive)

Try the compound CN(C)c1ccc(/C=C2\SC(=S)N(Nc3ncc(C(F)(F)F)cc3Cl)C2=O)cc1
5.01 µM (inconclusive)

Would you mind doing N[C@@H](CC1=CS(=O)(=O)c2ccc(Cl)cc21)C(=O)O as well?
0.398 µM (inconclusive)

Item: COc1ccc(NC(=O)CSc2nnc(C3CC3)n2N)cc1
39.8 µM (inconclusive)

Give AC50 for each listed item.
1. O=C(C1CCN(S(=O)(=O)c2cccc3nsnc23)CC1)N1CCCc2ccccc21
2. COc1ccc(C(=O)N2CCC3(CC2)CN(C(=O)Nc2ccccc2)C3)cc1
3. Cc1ccccc1-c1cc(C(=O)n2cccn2)c2cc(Cl)ccc2n1
4. CCCNC(=N)NCCC[C@H](N)C(=O)O
5. COc1ccc(C(=O)N2CCC[C@@]3(CCN(c4cccc(-c5ccccc5)c4)C3)C2)cc1
6. CCOC(=O)c1c(NC(=O)Cn2nc([N+](=O)[O-])c(Br)c2C)sc2c1CCC(C)C2 (configuration not stated)

10 µM (inconclusive)
25.1 µM (inconclusive)
17.8 µM (inconclusive)
31.6 µM (inconclusive)
12.6 µM (inconclusive)
2.82 µM (inconclusive)
